Target Under Test: HDAC5 (Homo sapiens, UniProt Q9UQL6)
Construct: purchased BPS Bioscience
Sequence (Q9UQL6 whole entry): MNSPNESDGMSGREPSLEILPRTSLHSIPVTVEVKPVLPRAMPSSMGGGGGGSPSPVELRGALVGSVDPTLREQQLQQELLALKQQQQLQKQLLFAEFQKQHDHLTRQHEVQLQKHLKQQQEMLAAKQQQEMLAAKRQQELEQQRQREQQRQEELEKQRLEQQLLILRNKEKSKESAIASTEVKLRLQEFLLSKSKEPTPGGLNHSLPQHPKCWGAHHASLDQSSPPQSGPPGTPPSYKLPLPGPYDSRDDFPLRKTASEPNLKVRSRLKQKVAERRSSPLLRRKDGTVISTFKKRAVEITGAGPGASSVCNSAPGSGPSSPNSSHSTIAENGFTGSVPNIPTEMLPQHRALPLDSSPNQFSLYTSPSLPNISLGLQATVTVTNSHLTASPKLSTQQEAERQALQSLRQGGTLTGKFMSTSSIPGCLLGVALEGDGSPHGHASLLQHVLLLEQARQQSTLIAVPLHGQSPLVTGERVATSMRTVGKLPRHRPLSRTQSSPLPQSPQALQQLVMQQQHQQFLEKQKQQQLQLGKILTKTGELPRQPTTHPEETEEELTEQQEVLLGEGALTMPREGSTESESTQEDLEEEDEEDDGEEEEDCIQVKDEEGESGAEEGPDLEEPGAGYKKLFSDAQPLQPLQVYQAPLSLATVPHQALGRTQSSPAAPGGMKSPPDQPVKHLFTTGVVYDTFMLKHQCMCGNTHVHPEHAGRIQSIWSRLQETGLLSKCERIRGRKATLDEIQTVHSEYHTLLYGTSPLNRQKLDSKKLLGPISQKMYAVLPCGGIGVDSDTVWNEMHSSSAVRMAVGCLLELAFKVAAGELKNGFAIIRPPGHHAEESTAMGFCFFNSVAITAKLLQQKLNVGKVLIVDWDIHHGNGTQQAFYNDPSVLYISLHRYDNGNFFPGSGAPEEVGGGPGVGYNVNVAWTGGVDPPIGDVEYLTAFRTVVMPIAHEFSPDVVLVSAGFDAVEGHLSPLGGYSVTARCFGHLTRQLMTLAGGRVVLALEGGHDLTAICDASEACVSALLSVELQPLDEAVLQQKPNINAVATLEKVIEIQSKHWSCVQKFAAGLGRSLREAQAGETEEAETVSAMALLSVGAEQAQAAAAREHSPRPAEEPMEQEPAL
Assay Explanation: HDAC isoform inhibition, microfluidic lab-on-a-chip (Caliper) assay
Type: biochemical
Cond: HDAC isoform 5; 2 μM FAM-labeled acetylated peptide substrate, 60 min, room temperature
Measured Property: IC50 (µM)

1: O=C(NO)C1=Cc2ccccc2CC1 [Compound 32A]
2: Cc1ccc(S(=O)(=O)N2CC=C(C(=O)NO)CC2)cc1 [Compound 31A]
Enquiry: // which entry reports the smaller IC50, 1 or 2 ? Returns: label corresponding to the selected item.
Return: 2

* * *

Target Under Test: HDAC8 (Homo sapiens, UniProt Q9BY41)
Construct: purchased BPS Bioscience
Sequence (Q9BY41 whole entry): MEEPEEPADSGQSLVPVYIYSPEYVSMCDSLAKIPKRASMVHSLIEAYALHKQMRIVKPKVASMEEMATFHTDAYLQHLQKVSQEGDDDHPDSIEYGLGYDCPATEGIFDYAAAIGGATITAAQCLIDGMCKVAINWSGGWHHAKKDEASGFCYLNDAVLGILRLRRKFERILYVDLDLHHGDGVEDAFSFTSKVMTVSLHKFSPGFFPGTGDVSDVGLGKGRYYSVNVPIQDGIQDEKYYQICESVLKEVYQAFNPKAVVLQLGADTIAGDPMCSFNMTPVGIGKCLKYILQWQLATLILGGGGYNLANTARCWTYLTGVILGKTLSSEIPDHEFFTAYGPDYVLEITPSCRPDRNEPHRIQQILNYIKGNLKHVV
Assay Explanation: HDAC isoform inhibition, microfluidic lab-on-a-chip (Caliper) assay
Type: biochemical
Cond: HDAC isoform 8; 2 μM FAM-labeled acetylated peptide substrate, 60 min, room temperature
Measured Property: IC50 (µM)

I: O=C(NO)C1=C[C@@H](O)[C@@H](O)[C@H](O)C1 [Compound 22A]
II: COc1ccc(CNC2C=C(C(=O)NO)CCC2)cc1 (stereo not drawn) [Compound 7A]
III: COc1ccc(C(=O)N2CCC=C(C(=O)NO)C2)cc1 [Compound 12A]
Enquiry: Ascending by IC50, please: list the compounds accordingly. Enter labels, ranked according to the request.
Return: II, I, III

Cited source: patent US10793538B2
